Biological target: canine FcRn complex (FcRn-alpha subunit and beta-microglobulin), His-tagged, biotin labeled (canine)
Experiment: SPR (Biacore), biotin-FcRn captured on SA surface, IgG flowed over, pH 6, 15 C
measured.attribute: pKd
pKd (log units): -log10 of the concentration in mol/L.

Req: # query: pKd of entry canine IgGB (65) mAb with mutation Y436R (antibody, part only; not given: Variable domains, not shown: another chain or arm of the molecule) constant: ASTTAPSVFPLAPSCGSTSGSTVALACLVSGYFPEPVTVSWNSGSLTSGVHTFPSVLQSSGLYSLSSMVTVPSSRWPSETFTCNVAHPASKTKVDKPVPKRENGRVPRPPDCPKCPAPEMLGGPSVFIFPPKPKDTLLIARTPEVTCVVVDLDPEDPEVQISWFVDGKQMQTAKTQPREEQFNGTYRVVSVLPIGHQDWLKGKQFTCKVNNKALPSPIERTISKARGQAHQPSVYVLPPSREELSKNTVSLTCLIKDFFPPDIDVEWQSNGQQEPESKYRTTPPQLDEDGSYFLYSKLSVDKSRWQRGDTFICAVMHEALHNHRTQESLSHSPGK
Resp: 8.42
